System: G401
Assay: relative viability vs DMSO control (72 h) (fraction); higher = more viable cells
Conditions: 0.1235 µM
relative viability: recorded values
assay.metric: relative viability

molecule="CO[C@H]1C[C@@H]2CC[C@@H](C)[C@@](O)(O2)C(=O)C(=O)N2CCCC[C@H]2C(=O)O[C@H]([C@H](C)C[C@@H]2CC[C@@H](OCCO)[C@H](OC)C2)CC(=O)[C@H](C)/C=C(\\C)[C@@H](O)[C@@H](OC)C(=O)[C@H](C)C[C@H](C)/C=C/C=C/C=C/1C [Certican]" reading=0.729
molecule=CNC(=O)c1nnc(NC(=O)C2CC2)cc1Nc1cccc(-c2ncn(C)n2)c1OC reading=1.04
molecule="CC(C)(C)c1nc(-c2cccc(NS(=O)(=O)c3c(F)cccc3F)c2F)c(-c2ccnc(N)n2)s1 [Dabrafenib]" reading=0.929

---

Tested on: SW1353
Experiment: relative viability vs DMSO control (72 h) (fraction); higher = more viable cells
Details: 0.01372 µM
Here, each record is paired with measured relative viability data.
assay.metric: relative viability

smi=Cc1ccc(Nc2nccc(N(C)c3ccc4c(C)n(C)nc4c3)n2)cc1S(N)(=O)=O reading=0.96
smi=Cn1cc(C2=C(c3cn(C4CCN(Cc5ccccn5)CC4)c4ccccc34)C(=O)NC2=O)c2ccccc21 reading=1.08
smi=COc1cc(Nc2ncc(F)c(Nc3ccc4c(n3)N(COP(=O)(O)O)C(=O)C(C)(C)O4)n2)cc(OC)c1OC reading=1
smi=COC(=O)N[C@@H](C)CNc1nccc(-c2cn(C(C)C)nc2-c2cc(Cl)cc(NS(C)(=O)=O)c2F)n1 reading=1.09

---

relative viability for assorted molecules
Test system: A204
Test: relative viability vs DMSO control (72 h) (fraction); higher = more viable cells
Conditions: 3.333 µM
assay.metric: relative viability

molecule=CC#CC(=O)N1CCC[C@H]1c1nc(-c2ccc(C(=O)Nc3ccccn3)cc2)c2c(N)nccn12 reading=1.02
molecule=CNC(=O)c1nnc(NC(=O)C2CC2)cc1Nc1cccc(-c2ncn(C)n2)c1OC reading=1.01
molecule="O=C1NC(=O)[C@@H](c2cn3c4c(cccc24)CCC3)[C@@H]1c1c[nH]c2ccccc12 [Tivantinib]" reading=0.439
molecule=Cc1cccc(-c2nn3c(c2-c2ccnc4ccc(C(N)=O)cc24)CCC3)n1 reading=0.996
molecule=COC(=O)N[C@@H](C)CNc1nccc(-c2cn(C(C)C)nc2-c2cc(Cl)cc(NS(C)(=O)=O)c2F)n1 reading=0.602
molecule=CC(C)(O)CNc1nc(Nc2ccnc(C(F)(F)F)c2)nc(-c2cccc(C(F)(F)F)n2)n1 reading=0.99
molecule=CC(C)Oc1ccc(-c2nn([C@@H](C)c3oc4ccc(F)cc4c(=O)c3-c3cccc(F)c3)c3ncnc(N)c23)cc1F reading=1.02
molecule=CC1(COc2ccc3c(c2)ncn3-c2ccc3cccc(N4CCC(N)CC4)c3n2)COC1 reading=0.326

---

Tested on: RD
Assay: relative viability vs DMSO control (72 h) (fraction); higher = more viable cells
Settings: 0.1235 µM
Listed here: items and their measured relative viability.
assay.metric: relative viability

smi=O=c1sn(-c2cccc3ccccc23)c(=O)n1Cc1ccccc1 assay_metric="relative viability" reading=1.11
smi=CCN(CC)CCNC(=O)c1c(C)[nH]c(/C=C2\C(=O)Nc3ccc(F)cc32)c1C assay_metric="relative viability" reading=1.14
smi=COc1cc(OC)c(/C=C/S(=O)(=O)Cc2ccc(OC)c(NCC(=O)O)c2)c(OC)c1 assay_metric="relative viability" reading=0.825
smi=N#CC1(c2ccc(NC(=O)c3cccnc3NCc3ccncc3)cc2)CCCC1 assay_metric="relative viability" reading=1.02
smi=CC#CC(=O)N1CCC[C@H]1c1nc(-c2ccc(C(=O)Nc3ccccn3)cc2)c2c(N)nccn12 assay_metric="relative viability" reading=1.06
smi=CNC(=O)c1nnc(NC(=O)C2CC2)cc1Nc1cccc(-c2ncn(C)n2)c1OC assay_metric="relative viability" reading=1.11
smi=CCN1C(=O)N(c2c(F)c(OC)cc(OC)c2F)Cc2cnc3[nH]c(CN4CCOCC4)cc3c21 assay_metric="relative viability" reading=1.03
smi=CC1(C)CC=C(c2nc(C3CC(C)(C)OC(C)(C)C3)ccc2NC(=O)c2nc(C#N)c[nH]2)CC1 assay_metric="relative viability" reading=1.1

---

System: SW1353
Test: relative viability vs DMSO control (72 h) (fraction); higher = more viable cells
Conditions: 0.00457 µM
Item-by-item account of relative viability
assay.metric: relative viability

compound=N#CC1(c2ccc(NC(=O)c3cccnc3NCc3ccncc3)cc2)CCCC1 reading=1.01
compound=O=C(Nc1nc2cccc(-c3ccc(CN4CCS(=O)(=O)CC4)cc3)n2n1)C1CC1 reading=1.01
compound=CC(C)(O)CNc1nc(Nc2ccnc(C(F)(F)F)c2)nc(-c2cccc(C(F)(F)F)n2)n1 reading=1.02
compound="COc1cc(CCc2cc(NC(=O)c3ccc(N4CC(C)NC(C)C4)cc3)n[nH]2)cc(OC)c1 (stereo not drawn)" reading=0.981
compound=CC1(C)CC=C(c2nc(C3CC(C)(C)OC(C)(C)C3)ccc2NC(=O)c2nc(C#N)c[nH]2)CC1 reading=0.994
compound=COc1cc(Nc2ncc(F)c(Nc3ccc4c(n3)N(COP(=O)(O)O)C(=O)C(C)(C)O4)n2)cc(OC)c1OC reading=1.01
compound=Cc1cc2c(F)c(Oc3ncnn4cc(OC[C@@H](C)O)c(C)c34)ccc2[nH]1 reading=0.96
compound=O=c1sn(-c2cccc3ccccc23)c(=O)n1Cc1ccccc1 reading=1.04

---

Tested on: MES-SA
Assay: relative viability vs DMSO control (72 h) (fraction); higher = more viable cells
Conditions: 10 µM
Each entry below carries its recorded relative viability.
assay.metric: relative viability

smi=CC(C)NC[C@@H](C(=O)N1CCN(c2ncnc3c2[C@H](C)C[C@H]3O)CC1)c1ccc(Cl)cc1 assay_metric="relative viability" reading=0.24
smi=CC(C)Oc1ccc(-c2nn([C@@H](C)c3oc4ccc(F)cc4c(=O)c3-c3cccc(F)c3)c3ncnc(N)c23)cc1F assay_metric="relative viability" reading=0.747
smi=Cc1cc2cc(Oc3ccnc(Nc4cccc(CS(=O)(=O)NCCN(C)C)c4)n3)ccc2[nH]1 assay_metric="relative viability" reading=0.299
smi=O=S(=O)(c1cccc2cnccc12)N1CCCNCC1 assay_metric="relative viability" reading=0.895
smi=CC1(COc2ccc3c(c2)ncn3-c2ccc3cccc(N4CCC(N)CC4)c3n2)COC1 assay_metric="relative viability" reading=0.0499
smi=CCc1cnn2c(NCc3ccc[n+]([O-])c3)cc(N3CCCC[C@H]3CCO)nc12 assay_metric="relative viability" reading=0.0262
smi=O=C(Nc1ccc(OC(F)(F)Cl)cc1)c1cnc(N2CC[C@@H](O)C2)c(-c2cc[nH]n2)c1 assay_metric="relative viability" reading=0.577
smi=CC(C)(C)c1nc(-c2cccc(NS(=O)(=O)c3c(F)cccc3F)c2F)c(-c2ccnc(N)n2)s1 assay_metric="relative viability" reading=0.745

---

Test system: SYO-1
Assay: relative viability vs DMSO control (72 h) (fraction); higher = more viable cells
Conditions: 0.00051 µM
assay.metric: relative viability

molecule="COC(=O)[C@@]1(O)C[C@H]2O[C@]1(C)n1c3ccccc3c3c4c(c5c6ccccc6n2c5c31)C(=O)NC4 [K-252a]" assay_metric="relative viability" reading=0.983
molecule=Clc1ccc(Nc2nnc(Cc3ccncc3)c3ccccc23)cc1 assay_metric="relative viability" reading=0.915
molecule="O=C1NC(=O)[C@@H](c2cn3c4c(cccc24)CCC3)[C@@H]1c1c[nH]c2ccccc12 [Tivantinib]" assay_metric="relative viability" reading=0.928
molecule=CNC(=O)c1nnc(NC(=O)C2CC2)cc1Nc1cccc(-c2ncn(C)n2)c1OC assay_metric="relative viability" reading=0.969
molecule=CC(C)NC[C@@H](C(=O)N1CCN(c2ncnc3c2[C@H](C)C[C@H]3O)CC1)c1ccc(Cl)cc1 assay_metric="relative viability" reading=0.94
molecule=CC(C)Oc1ccc(-c2nn([C@@H](C)c3oc4ccc(F)cc4c(=O)c3-c3cccc(F)c3)c3ncnc(N)c23)cc1F assay_metric="relative viability" reading=1.02
molecule=COc1cc(Nc2ncc(F)c(Nc3ccc4c(n3)N(COP(=O)(O)O)C(=O)C(C)(C)O4)n2)cc(OC)c1OC assay_metric="relative viability" reading=0.953

---

System: RD
Experiment: relative viability vs DMSO control (72 h) (fraction); higher = more viable cells
Conditions: 0.00017 µM
assay.metric: relative viability

smi=CNC(=O)c1ccccc1Sc1ccc2c(/C=C/c3ccccn3)n[nH]c2c1 reading=0.981
smi=Cc1cccc(-c2nn3c(c2-c2ccnc4ccc(C(N)=O)cc24)CCC3)n1 reading=1.06
smi=CC#CC(=O)N1CCC[C@H]1c1nc(-c2ccc(C(=O)Nc3ccccn3)cc2)c2c(N)nccn12 reading=1.13
smi=CN1CC[C@@H](NC(=O)Nc2ccc(C#N)cc2)C[C@@H]1c1nc2ccccc2[nH]1 reading=1.02
